target: Protein cereblon/GTPase KRas (Homo sapiens, UniProt P01116+Q96SW2, G12D); assay: PROTAC activity at CRBN/KRAS G12D mutant in human ASPC1 cells assessed as induction of protein degradation incubated for 24 hrs by Western blot analysis; assay type: cell-based
Sequence (P01116 whole entry G12D, stated change not applied): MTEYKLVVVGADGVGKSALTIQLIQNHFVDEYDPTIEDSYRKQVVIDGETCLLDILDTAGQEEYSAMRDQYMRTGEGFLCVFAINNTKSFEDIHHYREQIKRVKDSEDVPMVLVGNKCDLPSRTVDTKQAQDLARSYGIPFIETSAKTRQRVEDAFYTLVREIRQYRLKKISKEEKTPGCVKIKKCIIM
Sequence (Q96SW2 whole entry, stated change not applied): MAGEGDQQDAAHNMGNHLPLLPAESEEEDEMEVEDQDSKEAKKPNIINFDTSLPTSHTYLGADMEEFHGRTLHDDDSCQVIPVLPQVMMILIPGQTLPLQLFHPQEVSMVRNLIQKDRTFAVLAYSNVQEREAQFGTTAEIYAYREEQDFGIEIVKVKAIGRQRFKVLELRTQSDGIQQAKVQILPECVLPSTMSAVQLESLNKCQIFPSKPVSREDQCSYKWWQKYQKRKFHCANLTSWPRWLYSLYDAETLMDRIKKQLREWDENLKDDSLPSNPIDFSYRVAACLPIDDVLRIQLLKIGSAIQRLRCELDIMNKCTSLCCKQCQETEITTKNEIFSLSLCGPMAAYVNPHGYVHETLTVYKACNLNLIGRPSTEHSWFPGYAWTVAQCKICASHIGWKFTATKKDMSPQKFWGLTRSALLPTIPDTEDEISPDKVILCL
ASSAY METRIC: DC50

- COMPOUND: "C#Cc1c(F)ccc2cc(O)cc(-c3ncc4c(N5CC6CCC(C5)N6)nc(OC[C@]56CCCN5[C@H](CN5CCN(CC7CCN(c8ccc9c(c8)CN(C8CCC(=O)NC8=O)C9=O)CC7)CC5)CC6)nc4c3F)c12 (stereo not given in full)"
  RESULT: "≤ 100 nM"
- COMPOUND: "C#Cc1c(F)ccc2cc(O)cc(-c3ncc4c(N5C[C@H]6CC[C@@H](C5)N6)nc(OCCN5CCC(CC6(F)CCN(CC7CCN(c8ccc9c(c8)CN(C8CCC(=O)NC8=O)C9=O)CC7)CC6)CC5)nc4c3F)c12 (stereo not given in full)"
  RESULT: "> 1000 nM"
- COMPOUND: "C#Cc1c(F)ccc2cc(O)cc(-c3ncc4c(N5C[C@H]6CC[C@@H](C5)N6)nc(OC[C@@H]5C[C@@H](OC6CCN(c7ccc8c(c7F)CN(C7CCC(=O)NC7=O)C8=O)CC6)CN5C)nc4c3F)c12 (stereo not given in full)"
  RESULT: "≤ 100 nM"
- COMPOUND: "C#Cc1c(F)ccc2cc(O)cc(-c3ncc4c(N5C[C@H]6CC[C@@H](C5)N6)nc(OC[C@@H]5C[C@@H](OC6CCN(CC7CCN(c8ccc9c(c8)n(C)c(=O)n9C8CCC(=O)NC8=O)CC7)CC6)CN5C)nc4c3F)c12 (stereo not given in full)"
  RESULT: "≤ 100 nM"
- COMPOUND: "C#Cc1c(F)ccc2cc(O)cc(-c3ncc4c(N5C[C@H]6CC[C@@H](C5)N6)nc(OCCN5CCC(CN6CC7(CCN(c8ccc9c(c8)CN(C8CCC(=O)NC8=O)C9=O)CC7)C6)CC5)nc4c3F)c12 (stereo not given in full)"
  RESULT: "≤ 100 nM"
